Tested on: panel of cancer cell lines
Assay: Cell viability (CellTiter-Glo) dose-response across cancer cell line panel;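 further: after 72 h compound incubation with CellTiter-Glo ATP readout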
Type: cell-based, human
Settings: Homo sapiens, NCI-H1355, NCI-H1355 cells
RESULT TYPE: pEC50
Field pEC50 (float): negative decimal logarithm of the concentration in molar.

Query string: Recall the reported pEC50 of COCc1ccccc1NCc1ccc([C@@H]2[C@H](O)CCCc3cncn32)c(-c2ccccc2Cl)c1 when tested on panel of cancer cell lines.
Result string: 4.92

* * *

Test system: panel of cancer cell lines
Experiment: Cell viability (CellTiter-Glo) dose-response across cancer cell line panel;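 further: after 72 h compound incubation with CellTiter-Glo ATP readout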
Assay type: cell-based, human
Conditions: Homo sapiens, SK-N-SH, SK-N-SH cells
Method: Next, we explored the effect of CSN5 inhibition on the viability of cancer cells. […] A standardized CellTiter-Glo Assay (Promega #G7570) based on the quantification of ATP was applied according to the manufacturer's protocol to measure the amount of viable cells in culture. […] EC50 values were calculated from the plot of percentage of inhibition versus inhibitor concentration using the nonlinear regression analysis software Origin 7.5SR6 (OriginLab Corp.).
RESULT TYPE: EC50 (µM)
Return type: number; implicit unit µM.

Query string: Recall the reported EC50 of COCc1ccccc1NCc1ccc([C@@H]2[C@H](O)CCCc3cncn32)c(-c2ccccc2Cl)c1 when tested on panel of cancer cell lines.
Result string: 26.6

# credit: paper PMC5078989
